All values here come from PubChem BioAssay.

- test details: binders of probe aHhip on microarray, primary screen, stem cell growth factor project, biochemical, small-molecule microarray, fluorescence 635/667 (AID 1087);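 further: score merges spot fluorescence at 667nm with spot signal to noise ratio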
- experimental context: higher = more signal
value type: composite z-score

compound	value type	experimental value
C=C(CCCC)/C(=C/C[C@@H](OC(=O)c1ccncc1)c1ccc(OCCO)cc1)c1cc(C(=O)OC)ccc1OC	composite z-score	-0.217
C=CCC(OC(C)=O)[C@@H]1[C@@H](N(Cc2ccc(-c3cccc(C(F)(F)F)c3)o2)C(=O)c2ccc(C)cc2)c2cc(OCCCO)ccc2N1C(=O)Cc1ccc2ccccc2c1 (some centres not stated)	composite z-score	-0.134
CO[C@H]1O[C@H](CO)[C@@H](OC(=O)Nc2ccccc2)[C@H](OC(=O)Nc2ccccc2)[C@@H]1OC(=O)Nc1ccccc1	composite z-score	-0.546
O=C1C2C=CC(C(O)c3cccc4ccccc34)N(Nc3ccccc3F)C2C(=O)N1c1ccccc1 (configuration not stated)	composite z-score	-0.0672
CCCc1cc2c(n1Cc1cc(F)cc(F)c1)C(C)C1CN(C(=O)c3ccccc3)C(C)(C(=O)OC)C21 (configuration not stated)	composite z-score	0.441
COc1ccc(CCNC(=O)[C@@]2(Sc3ccc(C)cc3)CC(=O)N(C3Cc4ccccc4C3)[C@@H]2c2ccc(CO)cc2I)cc1	composite z-score	0.0854
C=C(/C(=C/C[C@H](OC(C)=O)c1ccccc1OCCO)c1cnc2ccccc2c1)C(C)C	composite z-score	0.0274

====

- target under test: Torsin-1A (Homo sapiens) (UniProt O14656)
- Sequence (O14656 whole entry, looked up): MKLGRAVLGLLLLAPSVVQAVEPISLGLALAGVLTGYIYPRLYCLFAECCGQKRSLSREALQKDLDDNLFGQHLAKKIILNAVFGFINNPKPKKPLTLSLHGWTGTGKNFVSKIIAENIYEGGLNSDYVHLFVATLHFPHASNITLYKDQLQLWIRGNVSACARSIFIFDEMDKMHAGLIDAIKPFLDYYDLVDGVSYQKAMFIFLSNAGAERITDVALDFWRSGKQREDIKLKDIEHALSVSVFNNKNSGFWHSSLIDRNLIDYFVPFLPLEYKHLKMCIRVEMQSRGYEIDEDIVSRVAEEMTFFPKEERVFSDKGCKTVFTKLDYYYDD
- test details: small-molecule binders of mutant TOR1A in lysate, primary screen, cell lysate, small-molecule microarray, COS7 lysate, 635/667 nm fluorescence (AID 1150);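 further: score pools 667 nm emission and signal to noise measuring lysate protein binding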
- experimental context: COS7 hTOR1A mutant lysate, 635 nm fluorescence, higher = more signal
Rule: 1.0 for composite z-score not less than 0.8, 0.0 for anything less.

compound	class label
COC(=O)[C@@]1(Cc2ccc(OC)cc2)[C@@H]2C(=CC(=O)[C@H]2CC(=O)C(=O)N2CCCC2)CN1C(=O)c1ccccc1	0.0
[N-]=[N+]=Nc1ccccc1[C@@H]1OC(c2ccc(OCCCO)cc2)=N[C@]1(CCS(=O)(=O)c1ccccc1)C(N)=O	1.0
C=CCC(OC(C)=O)[C@@H]1[C@@H](N(Cc2ccc(-c3cccc(C(F)(F)F)c3)o2)C(=O)c2ccc(C)cc2)c2cc(OCCCO)ccc2N1C(=O)Cc1ccc2ccccc2c1 (some centres undefined)	0.0
CC(C)C(=C=CC[C@H](O)c1ccc(OCCO)cc1)CCO	0.0
Cc1ccc(N2C(=O)c3ccccc3[C@@H](C(=O)NC3CC3)[C@@H]2c2ccc(CO)cc2)nc1	1.0
COC(=O)[C@@]1(Cc2ccc(F)cc2)[C@H]2c3cc(C(=O)N(C)C)n(Cc4ccc(Cl)c(C(F)(F)F)c4)c3C[C@H]2CN1C(=O)c1ccccc1	0.0
CC(C)c1ccc(NN2C(C(O)c3ccc(B(O)O)cc3)C=CC3C(=O)N(c4ccccc4)C(=O)C32)cc1 (centres undefined)	1.0
COC(=O)[C@H](Cc1ccccc1)N1CC2=C[C@@H](C3CC3)n3c(=O)n(C)c(=O)n3[C@H]2[C@@H]1[C@@H](O)Cc1ccccc1	0.0
COCCOC(=O)N1C(=O)[C@@]2(c3cc(C#CCCO)ccc31)[C@H](C(=O)N1CCCCCCC1)[C@H]1C(=O)O[C@H](c3ccccc3)[C@H](c3ccccc3)N1[C@@H]2c1ccc(OCCO)cc1	1.0
C=CCNC(=O)[C@@H]1[C@H]2C(=O)O[C@H](c3ccccc3)[C@H](c3ccccc3)N2[C@H](c2ccc(O)cc2)[C@@]12C(=O)N(C(=O)OCCOC)c1ccc(C#CCNC(N)=O)cc12	0.0
O=C1O[C@@H](c2ccccc2)[C@@H](c2ccccc2)N2[C@@H](c3ccccc3OCCO)[C@]3(C(=O)Nc4ccccc43)[C@@H](C(=O)Nc3nc4ccccc4s3)[C@H]12	1.0
CN(C)CCCC[C@@H]1NC(=O)[C@H]2C[C@@H](C(=O)NCCCCCCN)[C@@H](c3ccc(O)cc3)N2C1=O	0.0
CN(C)CCCCCCNC(=O)[C@H]1C[C@H]2C(=O)N[C@@H](CCCCN)C(=O)N2[C@H]1c1cccc(OCCO)c1	1.0
C=C(CCCC)/C(=C/C[C@H](OC(C)=O)c1ccccc1OCCO)c1cc(C(=O)OC)ccc1OC	0.0
